# ASSAY COMMENT: Cytotoxicity in mock-infected MT-4 cell cultures, MTT method
# Format: cell-based
# CONDITION PARAMETERS: human
ENDPOINT: CC50

Example entries begin here.
{"MOLECULE": "Cc1cn([C@H]2C[C@H](N=[N+]=[N-])[C@@H](CO)O2)c(=O)[nH]c1=O [Azidothymidine, azidothymidine, reference compound]", "CC50": "> 7.5 µM"}
{"MOLECULE": "O=c1[nH]cnc2c1ncn2[C@H]1CC[C@@H](CO)O1 [Didanosine, didanosine, reference compound]", "CC50": "> 212 µM"}

Now turn to the next molecule.
Note CC50 for the molecule shown: Nc1ccn([C@@H]2CS[C@H](CO)O2)c(=O)n1 [Lamivudine, lamivudine, reference compound] > 87.2 µM
